tested on: MS2 coat protein; assay: apparent KD of MS2 coat protein; designed switch direction (-1 OFF switch, 1 ON switch): -1; higher = weaker reporter binding; details: input ligand: FMN 200 uM
The entries below come with measured apparent KD of MS2 coat protein values attached.
Unit nM implied. Number only.

See these solved cases before continuing.
>  <sequence-content>
AAUGAUUGACGAGGAUAUUGUGUUAGAUCACGACGAGAAGGCGUCUGUCACAUGAGGAUCACCCAUGUGAGCCUGGUGGAUAGA [Ex NG1 #78] (Eterna round: R96, puzzle: Exclusion NG 1)

>  <result-value>
82.6

$$$$
>  <sequence-content>
CUUCAAGCACCAGAGCUCACACUUAUACCUGCUCUGGUGACAUGAGGAUCACCCAUGUUUUUUGCCCGUCUUAUCUU [Sensor v3, turn-off variant 2 (MOD of Leso v.2)] (Eterna round: R96, puzzle: Sensor v3, turn-off variant 2)

>  <result-value>
178

$$$$
>  <sequence-content>
UUCGUACAGCUUUGCUGUACGCGUACAUGAGGAUCACCCAUGUAGGAUAUGGUAGGCAAAGCUUACUAGAAGGAUAGAGUGAUC [Mat - Exclusion NG 3 - Mod of JL - D75] (Eterna round: R96, puzzle: Exclusion NG 3)

>  <result-value>
244

$$$$
>  <sequence-content>
AAGGGUGCUUUCAGAACGACAUGAGGAUCACCCAUGUAGACUGAGGAUAUCUACUCCUAAGGACGGGAGAAGGUAGUGUAAUGC [Ex NG3 #66] (Eterna round: R96, puzzle: Exclusion NG 3)

>  <result-value>
22.8

$$$$
>  <sequence-content>
GUCGUGUUAGGAUAUAACAACUACUAAUAAAUUAGUAGUUGUUAGAAGGAACAUGAGGAUCACCCAUGUAUGAC [-23.4, -22.9 kcal, A 36%] (Eterna round: R97, puzzle: Exclusion 4)

>  <result-value>
192

$$$$
>  <sequence-content>
AGCUAGUCAGGAUAUUCUAAUAAUUACAUGAGGAUCACCCAUGUGAAUAGACAAGGGUGUGAAGAAGGGACUAGCG [Omei Ex5 A5] (Eterna round: R97, puzzle: Exclusion 5)

>  <result-value>
58.3

$$$$
>  <sequence-content>
AGCUGUGAGUGAGGAUAUCUGCUGUUGUCAGUCGGAGAAGGCGCGGACAGAACAUGAGGAUCACCCAUGUGUAUGGGCGGCCUC [Usatia] (Eterna round: R96, puzzle: Exclusion NG 1)

>  <result-value>
217

$$$$
>  <sequence-content>
AUAUCACAUGAGGAUCACCCAUGUCAGGAUAUCGACUGAACAGCUUCGGCUGUUCAGUCGAGAAGGGACAAUUA [Brourdxlusion 2 - Jieux - Exclusion 1] (Eterna round: R97, puzzle: Exclusion 1)

>  <result-value>
84.9

$$$$
>  <sequence-content>
AUGUACCGGUGAGGAUAUUUAUAAUAGAGCUUUAUGAUAUACAUGAGGAUCACCCAUGUUACUUUAAAGAAGGCAUCGGAUUAA [Mat - Exclusion NG 2 - Mod of JL - D91] (Eterna round: R96, puzzle: Exclusion NG 2)

>  <result-value>
15.3

$$$$
>  <sequence-content>
ACAUGAGGAUCACCCAUGUAAUCAUGAUGGCUGAUGUAGAGCUAGGAUAUGAGUGGCUUUCUAUCUCAGAAGGAGCUUGACUGG [Deportation 42 - Jieux - Exclusion NG 3] (Eterna round: R96, puzzle: Exclusion NG 3)

>  <result-value>
28.9

$$$$

Here is another sequence to look at.
Query string: Need apparent KD of MS2 coat protein of CACCUGAACACAGGAUAUCAUACAUGAGGAUCACCCAUGUAAUAAAUGAGAAUUUCGAAUGUAAUUGAGAAGGGUGGAUAAGGC [Ostricism 90 - Jieux - Exclusion NG 2] (Eterna round: R96, puzzle: Exclusion NG 2) , thanks.
Result string: 97.8
